Test system: K-562 leukemia
Experiment: NCI-60 one-dose screen, 48 h (100 = growth as untreated, 0 = no growth, -100 = all killed)
Conditions: 10 µM unless noted
Method: Cells are grown in 96 well plates and exposed to the test compound for 48 hours. Compounds are tested at a single concentration, which is 10^-5 M for most compounds. The reported endpoint is percent growth (GI% or GIPRCNT), where numbers from 0 - 100% represent growth inhibition, and numbers from -100% - 0 represent cell death. For example, a value of 40 represents 60% growth inhibition. A value of 0 means no net growth occurred over the course of the experiment. […]
The panel holds about 83,000 compounds, 20% with a hit somewhere; the sample as a whole holds those more often. *1 amine or outer side, *2 acyl side, *3 side chain or, on linkers, in order; H or OH if unused. Where a SMILES comes first, the peptide text is derived from it. Bridges are numbered along the chain shown (N, C = ends). Roman numbers before positions name the chains, in order. [ ]: non-standard residue; d: D form. Actinocin(1to9) = Cc1c2oc3c(C)ccc(C(=O)[*:2])c3nc-2c(C(=O)[*:1])c(N)c1=O; NMeV = CN[CH](C(=O)O)C(C)C; Sar = CNCC(=O)O
Entries annotated with measured growth
Recorded Metric: growth (%)

Molecule	Recorded Metric	Experimental Value
O=[N+]([O-])c1ccc(N2CCN(Cc3ccccc3)CC2)c2c1no[n+]2[O-]	growth	-43.5
CCCCCCCCCCCC[n+]1ccc(CCCCCCCCC)cc1	growth	-37.4
CCN1/C(=C/C(C)=C/c2sc3ccc4ccccc4c3[n+]2CC)Sc2ccc3ccccc3c21	growth	-23.7
C[C@@]1(CO)[C@H](O)CC[C@@]2(C)[C@H]1CC[C@H]1C[C@@H]3C[C@@]12CC[C@@]3(O)COC(=O)CN	growth	34.2
S=C(S)OCN1CCOCC1	growth	77.3
Cc1ccc(NC2=CC(=O)C(=O)c3ccccc32)cc1	growth	16.4
CCCCCC[C@@H](O)C/C=C\CCCCCCCC(=O)OCCOC	growth	137
Clc1ccccc1C(c1ccccc1)(c1ccccc1)n1ccnc1	growth	17
COC(=O)Nc1nc2ccc(C3(c4ccc(F)cc4)OCCO3)cc2[nH]1	growth	9.31
CCCOC(=O)c1nc(N(CC2CCCCC2)C(=O)NC)sc1/N=C/c1ccccc1	growth	2.2
CCC(C)C1NC(=O)C(NC(=O)c2c3nc4c(C(=O)NC5C(=O)NC(C(C)CC)C(=O)N6CCCC6C(=O)N(C)CC(=O)N(C)C(C(C)C)C(=O)OC5C)ccc(C)c4oc-3c(C)c(=O)c2N)C(C)OC(=O)C(C(C)C)N(C)C(=O)CN(C)C(=O)C2CCCN2C1=O (stereo unspecified) (I: TIP[Sar][NMeV] / II: TIP[Sar][NMeV]; ester I:1-I:C, II:1-II:C; linker I:N-II:N via Actinocin(1to9); configuration not given here)	growth	1.13
CN(C)CC(C)(CN(C)C)C(=O)/C=C/c1c(Cl)cccc1Cl	growth	-8.43
COC(=O)c1cc([N+](=O)[O-])cc([N+](=O)[O-])c1Cl	growth	15.2
OC(c1cc(-c2ccc(Cl)cc2)nc2c(Cl)cccc12)C1CCCCN1 (stereo unspecified)	growth	-30.9
O=[N+]([O-])c1ccc(Oc2ccccc2Cl)c([N+](=O)[O-])c1	growth	17.4
N#CC(=C1SCS1)[N+](=O)[O-]	growth	28.4
CCCCCCCCCCCCCCCCCC[S+](C)CC (stereo unspecified)	growth	47.9
NC(CS/C(Cl)=C/Cl)C(=O)O (stereo unspecified)	growth	89.2
O=[N+]([O-])c1ccc(C2N(Cc3ccc(Cl)cc3)CCN2Cc2ccc(Cl)cc2)cc1	growth	67
CC/C(=C(/CC)c1ccc(O)cc1)c1ccc(O)cc1	growth	27.5
Cc1ccc2c(c1)sc(-c1ccc(N(C)C)cc1)[n+]2C	growth	-21.7
Nc1nc(-c2ccccc2)nc(N)c1N=O	growth	31.7
CCCN(CCC)C(=O)c1ccc(C)cc1	growth	109
CCCCCCCCCCCCCCCCCC1=NCCCN1CCO	growth	100
O=C(O)c1cccc2cccc(-c3c4ccc(=O)c(O)c-4oc4c(O)c(O)ccc34)c12	growth	70.6
CC(=O)Nc1ccc(C(=O)CCl)cc1	growth	1.75
